Test system: SmLux
test: Computationally generated LgLux variants expressed in E. coli, tested in lysates with SmLux and substrate 1c
Format: biochemical
test settings: 50 uM substrate 1c, before SmLux peptide addition
assay readout: Baseline Signal (Normalized by expression)

{"molecule": "5119 (protein) MTPEQIRANVERFYAALASGDLETAKALFDPGTTITLWDGTTFTSLEEFLAWFEKQFKASKDAKREIVSLEIEGDTVRVLVRLTYTVDGEVKEVDLLQLLKFV", "experimental value": 155.6}
{"molecule": "5115 (protein) MTPEEIIANVKKFYAALASGDLETAKALFDPGTTITLWDGTTFTSLEEFLAWFEKQFEASKDAKREIVSIEVKGNTVKVLVRLTYVKDGKEQVVDLLQLLKFV", "experimental value": 165}
{"molecule": "5287 (protein) MTPEAIRENVRAFYAALASGDWAAAKALFDPGVTITLWDGTTFTSVEEFRAWFEKQFKTSKDALREIVSMEVEGDVVRVLVRLTFVRDGKEQVVDLLQLFKFV", "experimental value": 174.8}

# ---- query molecule ----
For record 5294 (protein) MTPEEIRANVRAFYAALASGDLEAAKALFDPGVTITLWDGTTFTSVEEFRAWFEEQFQTSKDALREIESLEVEGDVVRVLVRLTFTRDGKVEEVDLLQLFKFV the listed Baseline Signal (Normalized by expression) is 175.2
